Numbers sourced from patent EP0562731A1.

// values below are reported degree of growth control, AM
System: slender amaranth (Amaranthus viridis)
Test: Test Example 1: foliar application pot test, visual growth control rating
Type: in vivo
Details: 1.25 g/a active ingredient, wettable powder, observed 20 to 31 days after application

Some molecules with recorded degree of growth control, AM:
1) COc1nc(C)nc(NC(=O)NS(=O)(=O)c2cccc(N(CC(C)C)S(C)(=O)=O)n2)n1 = 6
2) CCCS(=O)(=O)N(C)c1cccc(S(=O)(=O)NC(=O)Nc2nc(C)nc(OC)n2)n1 = 9
3) CCN(c1cccc(S(=O)(=O)NC(=O)Nc2nc(OC)nc(OC)n2)n1)S(=O)(=O)C(C)C = 10

# next molecule below
Query: Request body: readout degree of growth control, AM, system slender amaranth (Amaranthus viridis), query `CCN(c1cccc(S(=O)(=O)NC(=O)Nc2nc(C)nc(OC)n2)n1)S(=O)(=O)CC(F)(F)F` . Return the value.
Result: 6

* * *

// values below are reported degree of growth control, AM
System: slender amaranth (Amaranthus viridis)
Assay: Test Example 1: foliar application pot test, visual growth control rating
Format: in vivo
Set-up: key: 1: the same as in an untreated plot; 10: perfect growth control
Settings: 1.25 g/a active ingredient, wettable powder, observed 20 to 31 days after application
// keep it numeric: no unit symbol after the value

Some compounds with recorded degree of growth control, AM:
1. CCCCS(=O)(=O)N(CCC)c1cccc(S(=O)(=O)NC(=O)Nc2nc(C)nc(OC)n2)n1 = 10
2. COc1nc(C)nc(NC(=O)NS(=O)(=O)c2cccc(N(C(C)C)S(=O)(=O)C(C)Cl)n2)n1 (racemic) = 9
3. CCCCN(c1cccc(S(=O)(=O)NC(=O)Nc2nc(C)nc(OC)n2)n1)S(C)(=O)=O = 6
4. CCS(=O)(=O)N(c1cccc(S(=O)(=O)NC(=O)Nc2nc(OC)nc(OC)n2)n1)C(C)C = 9
5. CCCCN(c1cccc(S(=O)(=O)NC(=O)Nc2nc(C)nc(OC)n2)n1)S(=O)(=O)C(C)C = 9
6. CCCN(c1cccc(S(=O)(=O)NC(=O)Nc2nc(C)nc(OC)n2)n1)S(=O)(=O)CC = 10
7. CCCCS(=O)(=O)N(CC(C)C)c1cccc(S(=O)(=O)NC(=O)Nc2nc(C)nc(OC)n2)n1 = 7
8. CCN(c1cccc(S(=O)(=O)NC(=O)Nc2nc(C)nc(OC)n2)n1)S(=O)(=O)C(C)Cl (racemic) = 9

Query: Request body: readout degree of growth control, AM, system slender amaranth (Amaranthus viridis), query `CCCCN(c1cccc(S(=O)(=O)NC(=O)Nc2nc(C)nc(OC)n2)n1)S(=O)(=O)CCCC` . Return the value.
Result: 5

Query: What would you report for `CCN(c1cccc(S(=O)(=O)NC(=O)Nc2nc(OC)nc(OC)n2)n1)S(=O)(=O)CC(F)(F)F` ?
Result: 5

Query: What would you report for CCC(C)N(c1cccc(S(=O)(=O)NC(=O)Nc2nc(C)nc(OC)n2)n1)S(=O)(=O)C(C)CC (racemic) ?
Result: 3

Query: What would you report for `CCN(c1cccc(S(=O)(=O)NC(=O)Nc2nc(C)nc(OC)n2)n1)S(=O)(=O)CCl` ?
Result: 9

Query: What would you report for `CCCN(c1cccc(S(=O)(=O)NC(=O)Nc2nc(OC)nc(OC)n2)n1)S(=O)(=O)CC` ?
Result: 7
